Test system: IL-1 production in LPS-stimulated PBMCs
Assay: Inhibition of IL-1 production in LPS-stimulated PBMCs ("cell")
Assay type: cell-based, human
Conditions: Homo sapiens, PBMC
Method: Inhibitors were serially diluted in DMSO from a 20 mM stock. At least 6 serial dilutions were prepared. Then 4× inhibitor stocks were prepared by adding 4 μl of an inhibitor dilution to 1 ml of RPMI1640 medium/10% fetal bovine serum. The 4× inhibitor stocks contained inhibitor at concentrations of 80 μM, 32 μM, 12.8 μM, 5.12 μM, 2.048 μM, 0.819 μM, 0.328 μM, 0.131 μM, 0.052 μM, 0.021 μM etc. The 4× inhibitor stocks were pre-warmed at 37° C. until use. […]
pIC50: −log10 of the molar value.
Recorded pIC50 by entry

Molecule	pIC50
Cc1ccc(Sc2ccc3c(-c4c(Cl)cccc4Cl)c(=O)ncn3n2)cc1C [Compound 19]	≤ 6.30
NC(=O)C(c1ccc(Sc2ccccc2)cn1)c1c(Cl)cccc1Cl (stereo not drawn) [Compound 201]	≤ 6.30
Cc1cc(F)ccc1-c1cccc(C(C(N)=O)c2c(Cl)cccc2Cl)n1 (stereo not drawn) [Compound 363]	≥ 7.00
COC(=O)c1ccccc1SC1=NN2CNC(=O)C(c3c(Cl)cccc3Cl)=C2C=C1 [Compound 101]	≥ 7.00
Cc1ccc(Sc2ccc3c(-c4c(Cl)cccc4Cl)c(=O)ncn3n2)cc1 [Compound 14]	6.30 to 7.00
Cc1cccc(-c2cccc(C(C(N)=O)c3c(Cl)cccc3Cl)n2)c1 (stereo not drawn) [Compound 312]	6.30 to 7.00
NC(=O)C(c1ccc(C(O)c2ccccc2)cn1)c1c(Cl)cccc1Cl (stereo not drawn) [Compound 208]	6.30 to 7.00
Cc1ccc(Sc2ccc3c(-c4c(Cl)cccc4Cl)c(=O)ncn3n2)c(C)c1 [Compound 32]	≤ 6.30
O=c1ncn2nc(Sc3cccc(F)c3)ccc2c1-c1c(Cl)cccc1Cl [Compound 21]	6.30 to 7.00
Cc1cc(SC2=NN3CNC(=O)C(c4c(Cl)cccc4Cl)=C3C=C2)c(Cl)cc1F [Compound 133]	≥ 7.00
Nc1cc(F)ccc1SC1=NN2CNC(=O)C(c3c(Cl)cccc3Cl)=C2C=C1 [Compound 117]	≥ 7.00
NC(=O)C(c1cccc(-c2ccccc2CN2CCNCC2)n1)c1c(Cl)cccc1Cl (stereo not drawn) [Compound 304]	≤ 6.30
O=C1NCN2N=C(Sc3ccc(F)cc3Cl)C=CC2=C1c1c(Cl)cccc1Cl [Compound 127]	≥ 7.00
NC(=O)C(c1cccc(-c2ccccc2CN2CCCC2)n1)c1c(Cl)cccc1Cl (stereo not drawn) [Compound 350]	6.30 to 7.00
Cc1cc(Cl)c(-c2c(=O)ncn3nc(Sc4ccc(F)cc4)ccc23)cc1C [Compound 44]	≤ 6.30
O=c1ncn2nc(Sc3ccccc3O)ccc2c1-c1c(Cl)cccc1Cl [Compound 33]	6.30 to 7.00
O=c1ncn2nc(Sc3ccc(F)cc3Cl)ccc2c1-c1c(Cl)cccc1Cl [Compound 38]	≥ 7.00
Cc1cc(F)ccc1-c1cccc(C(C(N)=O)c2c(F)cccc2Cl)n1 (stereo not drawn) [Compound 361]	6.30 to 7.00

* * *

Molecular target: activated p38 (Homo sapiens, UniProt Q16539)
Sequence (Q16539 whole entry): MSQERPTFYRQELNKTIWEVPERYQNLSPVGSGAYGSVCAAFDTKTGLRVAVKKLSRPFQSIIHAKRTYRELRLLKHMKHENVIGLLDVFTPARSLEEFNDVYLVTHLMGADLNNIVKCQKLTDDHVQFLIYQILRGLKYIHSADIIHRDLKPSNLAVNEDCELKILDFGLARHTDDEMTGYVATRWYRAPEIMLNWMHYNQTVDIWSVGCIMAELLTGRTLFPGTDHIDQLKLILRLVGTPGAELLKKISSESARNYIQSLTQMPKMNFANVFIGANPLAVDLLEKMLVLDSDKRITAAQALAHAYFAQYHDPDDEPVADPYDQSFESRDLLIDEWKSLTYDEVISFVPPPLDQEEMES
Test: Inhibition of phosphorylation of EGF receptor peptide ("kinase")
Details: inhibition of phosphorylation of EGF receptor peptide by activated p38
Protocol: This assay was carried out in the presence of 10 mM MgCl2, 25 mM β-glycerophosphate, 10% glycerol and 100 mM HEPES buffer at pH 7.6. […] The stock solution was aliquotted into vials. A fixed volume of DMSO or inhibitor in DMSO (final concentration of DMSO in reaction was 5%) was introduced to each vial, mixed and incubated for 15 minutes at room temperature. […] The phosphorylated peptide was quantified by HPLC analysis. […]

Molecule	IC50
COCOc1ccccc1-c1cccc(C(C(N)=O)c2c(Cl)cccc2Cl)n1 (centres unmarked)	0.1 to 1 µM
NC(=O)C(c1ccc(Sc2ccccc2)cn1)c1c(Cl)cccc1Cl (centres unmarked)	0.1 to 1 µM
COc1ccccc1-c1c(=O)ncn2nc(Sc3ccccc3)ccc12	≥ 1 µM
Cc1cc(Cl)ccc1Sc1ccc(C(C(N)=O)c2c(Cl)cccc2Cl)nn1 (centres unmarked)	0.1 to 1 µM
O=C1NCN2N=C(Sc3ccccc3CNc3ncc[nH]3)C=CC2=C1c1c(Cl)cccc1Cl	0.1 to 1 µM
